- ASSAY_SYSTEM: T1, LGR7 (relaxin 2 receptor), recombinant, stably expressed in HEK293T cells with a CRE-Luc reporter (UniProt Q9HBX9 1-757, limits assumed)
- T1 sequence (looked up): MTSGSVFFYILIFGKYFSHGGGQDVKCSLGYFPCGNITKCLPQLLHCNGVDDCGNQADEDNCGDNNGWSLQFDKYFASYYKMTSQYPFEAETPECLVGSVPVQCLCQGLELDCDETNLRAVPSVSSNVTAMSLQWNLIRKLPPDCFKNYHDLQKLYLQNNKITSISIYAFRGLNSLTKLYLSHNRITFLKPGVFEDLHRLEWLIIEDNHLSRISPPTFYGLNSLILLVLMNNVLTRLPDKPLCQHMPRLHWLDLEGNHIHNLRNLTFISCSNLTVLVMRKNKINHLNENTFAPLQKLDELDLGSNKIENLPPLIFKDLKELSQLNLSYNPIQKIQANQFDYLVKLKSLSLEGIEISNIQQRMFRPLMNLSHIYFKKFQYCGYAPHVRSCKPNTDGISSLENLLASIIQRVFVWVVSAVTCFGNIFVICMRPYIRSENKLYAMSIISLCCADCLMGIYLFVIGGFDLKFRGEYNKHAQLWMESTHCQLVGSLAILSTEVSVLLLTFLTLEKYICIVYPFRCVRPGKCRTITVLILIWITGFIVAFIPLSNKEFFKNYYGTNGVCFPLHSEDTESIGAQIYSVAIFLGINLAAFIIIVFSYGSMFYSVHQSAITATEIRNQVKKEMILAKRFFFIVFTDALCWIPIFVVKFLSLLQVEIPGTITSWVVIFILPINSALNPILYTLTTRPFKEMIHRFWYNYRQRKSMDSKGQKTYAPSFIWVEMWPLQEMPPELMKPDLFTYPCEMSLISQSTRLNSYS
- METHOD_SUMMARY: cell-based or functional assay
No end group written: not given here. ALK = (PEG)5-bromo-alkyne, S-alkylating Cys; FA182 = acetamide-PEG5-Lys-myristic acid; FA186 = acetamide-PEG5-Lys-stearic acid
Provide the recorded Activity, fold drop compared to relaxin for the entries that follow.
Dear colleague, please send the value followed by its unit.

Some binders with known Activity, fold drop compared to relaxin results, for comparison:
{"BINDER": "Relaxin-B:D1A-A:Q1-L2C-FA186 (ligand, ends and bridges not checked) chain 1: ASWMEEVIKLCGRELVRAQIAICGMSTWS chain 2: QC(FA186)YSALANKCCHVGCTKRSLARFC", "Activity, fold drop compared to relaxin": "10 fold"}
{"BINDER": "Relaxin-B:D1A (ligand, ends and bridges not checked; cysteine pairing not given here) chain 1: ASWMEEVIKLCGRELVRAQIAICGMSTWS chain 2: QLYSALANKCCHVGCTKRSLARFC", "Activity, fold drop compared to relaxin": "1 fold"}
{"BINDER": "Relaxin-B:D1A-A:Q1-L2C-FA182 (ligand, ends and bridges not checked) chain 1: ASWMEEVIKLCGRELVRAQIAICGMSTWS chain 2: QC(FA182)YSALANKCCHVGCTKRSLARFC", "Activity, fold drop compared to relaxin": "2 fold"}

What the record says about Relaxin-B:D1A-A:Q1-L2C-ALK (ligand, ends and bridges not checked) chain 1: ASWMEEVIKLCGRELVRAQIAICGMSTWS chain 2: QC(ALK)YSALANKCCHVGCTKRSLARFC : Activity, fold drop compared to relaxin is 1 fold
